Source listed as patent US11248234B2.

The entries below are paired with their reported Injury.
tested on: transgenic Arabidopsis plants (T2) SoHPPD Q317H (short); assay: Greenhouse spray test, injury evaluation; assay type: in vivo, Arabidopsis thaliana; details: Event B; 25 g ai/ha; 14 DAT
All answers are understood in %, so give the number only.

Here's what some known entries look like.
Incoming: Given `CSc1c(Cl)cc(F)c(C(=O)Nc2nnnn2C)c1Cl` , respond with its Injury.
Outgoing: 78

Incoming: Given `Cc1c(C(=O)c2cnn(C)c2O)ccc(S(C)(=O)=O)c1C1=NOCC1` , respond with its Injury.
Outgoing: 18

Incoming: Given `CSc1c(C(F)(F)F)ccc(C(=O)Nc2nnnn2C)c1Cl` , respond with its Injury.
Outgoing: 100

Next:
Incoming: Given `CS(=O)(=O)c1ccc(C(=O)C2C(=O)CCCC2=O)c([N+](=O)[O-])c1` , respond with its Injury.
Outgoing: 33
